Data origin: PubChem BioAssay

ASSAYED_SYSTEM: Left-right determination factor 2 (Homo sapiens)
PROTOCOL_NOTES: LEFTY2 binders on small-molecule microarrays, primary screen, biochemical, small-molecule microarray, 635 nm fluorescence scan (AID 1110)
ASSAY_CONTEXT: LEFTY2 binding, higher = more signal
PROPERTY_LABEL: composite z-score

Consider the worked cases shown below.
COMPOUND	PROPERTY_LABEL	MEASURED_RESULT
CN(C)C(=O)[C@]1(Cc2ccccc2CN=[N+]=[N-])N=C(c2ccc(OCCCO)cc2)O[C@@H]1c1ccccc1N=[N+]=[N-]	composite z-score	-0.472
CCN(CC)c1ccc(N2CC=CC34O[C@@H]5C=CCOC(=O)[C@@H]5[C@H]3C(=O)N(CCCO)[C@@H]4C2=O)cc1 (stereo partly specified)	composite z-score	-0.934
CO[C@H]1O[C@H](CO)[C@@H](OC(=O)Nc2ccc(C(F)(F)F)cc2)[C@H](OC(=O)Nc2ccccc2-c2ccccc2)[C@@H]1OC(=O)Nc1ccccc1-c1ccccc1	composite z-score	0.523
CC(C)C[C@@H]1NC(=O)[C@@H]2C[C@H](C(=O)NCCCC[N+](C)(C)C)[C@H](c3ccc(O)cc3)N2C1=O	composite z-score	1.05
COCCOC(=O)N1C(=O)[C@@]2(c3cc(C#CCC(C(=O)OC)C(=O)OC)ccc31)[C@H](C(=O)N1CCc3cc(OC)c(OC)cc3C1)[C@H]1C(=O)O[C@H](c3ccccc3)[C@H](c3ccccc3)N1[C@@H]2c1ccc(O)cc1	composite z-score	1.17

Data request: Suppose we examine the compound COC(=O)Cn1c(C(=O)N(C)C)cc2c1C[C@H]1CN(C(=O)c3ccccc3)[C@@](Cc3ccc(OC)cc3)(C(=O)OC)[C@@H]21 ; what composite z-score value has been reported?
Data returned: -0.212
